- Test System: T1, PUF4 RNA-binding domain (Saccharomyces cerevisiae, UniProt P25339 537-888)
- T1 sequence: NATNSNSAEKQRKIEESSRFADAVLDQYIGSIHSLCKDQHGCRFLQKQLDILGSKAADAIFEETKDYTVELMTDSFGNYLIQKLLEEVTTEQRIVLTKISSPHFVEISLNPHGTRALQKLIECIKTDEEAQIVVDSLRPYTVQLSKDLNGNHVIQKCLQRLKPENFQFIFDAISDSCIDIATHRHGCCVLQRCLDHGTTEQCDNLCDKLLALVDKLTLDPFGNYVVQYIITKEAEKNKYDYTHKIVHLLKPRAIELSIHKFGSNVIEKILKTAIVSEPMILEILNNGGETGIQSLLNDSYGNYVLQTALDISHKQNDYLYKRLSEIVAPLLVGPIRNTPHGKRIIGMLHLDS
- Test Details: Mg; RNA-MaP; 20 mM Na-HEPES pH 7.4, 30 mM KOAc, 0.75 mM MgCl2, 0.1% Tween-20, 5% glycerol, 0.1 mg/mL BSA, 2 mM DTT; 25 C; 0.0125-409.6 nM protein
- Protocol Conditions: tags: N-His6-TEV cleaved; C-SNAP kept, Cy3B-labelled; label: tethered on chip by stalled RNA polymerase
Measured Parameter: Kd

Please review the entries below; each comes with its answer.
{"columns": ["Binder", "Kd"],
 "data": [
  ["Ic_S4_P4E.1_K4.1_C4.1_H4.1_A4.1_[T5A]_[A6C]_[T7G]_F4.1_[T8G]_[A9C]_T4.1 (ssRNA) RNA: UUUGACAACUGAUCGUUCUUUCUUGUAACGGCUUCUUUCUCGAUCAGUUGUCUUU", "> 2300 nM"],
  ["ACAAACGAACACUAUAUCACAAAC (ssRNA) [Id_ii_S3_P3E.4_K3.3_C3.2_[C-2G]_[T-1A]_H3.3_A3.1_F3.1_T3.2_[A10C]]", "> 2300 nM"]
]}

In the following, a different binder is considered.
## Task Item UCUCUUUGUAGCCGAUCUCUU (ssRNA) [Ic_S1_P4E.1_K4.1_C4.1_H4.1_A4.1_[T5G]_[A6C]_[T7C]_F4.1_[T8G]_T4.1] has what recorded Kd?
## Result > 2300 nM
